system: SARS-CoV-2 spike RBD (WT) (Severe acute respiratory syndrome …, UniProt P0DTC2)
assay.details: ELISA
Set-up: unit not given here
List of binding score values.
measured.attribute: binding score

| binder | measured.attribute | value.modifier | numeric.result |
| --- | --- | --- | --- |
| D182 (antibody, V domains shown) VH: QVQLVESGGGVVQPGRSLRLSCAASGFTFSSYGMHWVRQAPGKGLEWVAVISYDGSNKYYADSVKGRFTISRDNSKNTLYLQMNSLRAEDTAVYYCAKATVLMVYAGFDYWGQGTLVTVSS VL: NFMLTQPHSVSESPGKTVTISCTGSSGSIASNYVQWYQQRPGSAPTTVIYEDNQRPSGVPDRFSGSIDSSSNSASLTISGLKTEDEADYYCQSYDSSNRWVFGGGTKLTVL | binding score | = | 2500 |
| D032 (antibody, V domains shown) VH: QVQLVESGGGVVQPGRSLRLSCAASGFTFSSYGMHWVRQAPGKGLEWVAVISYDGSNKYYADSVKGRFTISRDNSKNTLYLQMNSLRAEDTAVYYCAKVETVVDSDYYYYYGMDVWGQGTTVTVSS VL: SYVLTQPPSVSVSPGQTARITCSGDALPKQYAYWYQQKPGQAPVLVIYKDSERPSGIPERFSGSSSGTTVTLTISGVQAEDEADYYCQSADSSGTYWVFGGGTKLTVL | binding score | > | 10000 |

Origin of values: paper PMC9876794
